Sourced from patent US8557992B2

Recorded EC50 for the following compounds
Target: acetylcholine muscarinic M1 receptor (hM1) (Homo sapiens, UniProt P11229)
Construct: expressed in transfected cells; host or cells: CHOnfat (CHO cells, Geneticin selection)
Sequence (P11229 1-460): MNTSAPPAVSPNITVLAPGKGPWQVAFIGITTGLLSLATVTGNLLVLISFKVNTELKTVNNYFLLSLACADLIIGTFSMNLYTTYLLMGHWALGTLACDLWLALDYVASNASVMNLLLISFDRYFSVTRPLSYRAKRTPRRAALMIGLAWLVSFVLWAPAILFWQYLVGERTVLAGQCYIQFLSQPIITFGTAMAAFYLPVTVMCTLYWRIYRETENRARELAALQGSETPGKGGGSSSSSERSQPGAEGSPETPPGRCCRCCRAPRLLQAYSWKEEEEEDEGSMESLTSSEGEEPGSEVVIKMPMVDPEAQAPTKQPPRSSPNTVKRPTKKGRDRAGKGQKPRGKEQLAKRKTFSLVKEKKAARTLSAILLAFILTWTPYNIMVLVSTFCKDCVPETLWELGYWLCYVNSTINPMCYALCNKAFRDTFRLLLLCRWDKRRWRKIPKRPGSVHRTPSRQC
Test: FLIPR intracellular calcium assay for M1 positive allosteric modulator activity in CHOnfat/hM1 cells
Assay type: cell-based
Conditions: Table 1, unit inferred, potentiation of acetylcholine EC20 (3 nM final), read-out: H Pot.
quantityMeasured: EC50 (nM)

[[record]]
compound = "Cc1cc(Cc2cc3c(=O)n([C@H]4CCOC[C@@H]4O)ccc3c3ncccc23)ccn1 [Example 14]"
measuredtarget = "acetylcholine muscarinic M1 receptor (hM1) (Homo sapiens, UniProt P11229)"
quantitymeasured = "EC50"
unitsymbol = "nM"
reportedvalue = 16.8

[[record]]
compound = "O=c1c2cc(Cc3ccc(OC(F)F)nc3)c3cccnc3c2ccn1[C@H]1CCCC[C@@H]1O [Example 13]"
measuredtarget = "acetylcholine muscarinic M1 receptor (hM1) (Homo sapiens, UniProt P11229)"
quantitymeasured = "EC50"
unitsymbol = "nM"
reportedvalue = 55

[[record]]
compound = "COc1ccc(Cc2cc3c(=O)n([C@H]4CCCC[C@@H]4O)ccc3c3ncccc23)cn1 [Example 9]"
measuredtarget = "acetylcholine muscarinic M1 receptor (hM1) (Homo sapiens, UniProt P11229)"
quantitymeasured = "EC50"
unitsymbol = "nM"
reportedvalue = 22.5

[[record]]
compound = "Cc1cc(Cc2cc3c(=O)n([C@H]4CCCC[C@@H]4O)ccc3c3ncccc23)ccn1 [Example 12]"
measuredtarget = "acetylcholine muscarinic M1 receptor (hM1) (Homo sapiens, UniProt P11229)"
quantitymeasured = "EC50"
unitsymbol = "nM"
reportedvalue = 24

